- Test system: c-Src
- assayComment: phosphorylation enrichment, bacterial display (enrichment ratio); higher = better substrate or ligand; peptides without Tyr show the background
So basically, the class depends on measured phosphorylation enrichment, and the ranges are class A (below 0.4), class B (0.4 to below 1), class C (1 or more)

Category lookup for the sequence MPLDQYSPSFP [FGFR1_Y776]
class B

Which phosphorylation enrichment band matches VYSTDCYRVGG [NTRK2_Y706_Y706C] ?
class C

Field: class (phosphorylation enrichment) — entry: HFVDEYDPTME [KRAS_Y32_I36M]
class B

Please classify: FYLGAYDRFLP [SLC22A5_Y486_V481F]
class C

Which class holds TNFPLYLRSLE [MTM1_Y71_R69P_YF] ?
class B

Using the reported phosphorylation enrichment, which band applies to IVKAYYVRARA [AIPL1_Y268] ?
class A

Please let me know in which category the item FLENFYDLKKD [MMP3_Y42_YF] belongs.
class C

Form: Item = VMIFAYLLHRG [PTEN_Y138_C136Y_YF] ; Class = ?
class B

Which class does LSCLAYSGKDA [FXN_Y205_S202C] fall in?
class B

Bin this entry: IIEDPYYGNDF [ACP1_Y132_S137F]
class C

Entry RLSELYLRRNP [CFAP410_Y68_R73P] belongs to which category?
class A

Determine which band this sequence sits in: HYEDGYPGGSD [CTNND1_Y221]
class C

Category of KDHLDYKYQPR [SOX9_Y172_P170L] :
class B

Hi there! Could you help me figure out the category for RKLVDYNSARH [BIN1_Y150_D151N] please?
class A

* * *

- studySystem: c-Src SH2;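 further: peptide library displayed on the E. coli surface as eCPX fusions, selected cells deep-sequenced, score is each peptide's frequency after selection divided by its frequency in the input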
- assayComment: SH2 binding enrichment of the phosphorylated peptide, bacterial display (enrichment ratio); higher = better substrate or ligand; peptides without Tyr show the background
Decide by SH2 binding enrichment: equal to or exceeding 0.7 means t, less means f.

Confirm if SH2 binding enrichment reported for the sequence TFEFKYPEGSS [TGM4_Y440_YF] is 0.7 or above.
f

Does SH2 binding enrichment meet or surpass 0.7 for MAFDRYVAVCA [OR52J3_Y125] ?
f

Identify whether the reported SH2 binding enrichment of the following sequence is 0.7 or greater: VVHGSYDEIEG [SEC24A_Y263_S261G]
t

Would you say VDGSVYELHPS [GCK_Y413_K414E] shows SH2 binding enrichment at minimum 0.7?
t

Dear colleague, could you confirm whether IDQDKYAVRFI [FLNA_Y2388] has SH2 binding enrichment at or above 0.7?
f

For this sequence, is measured SH2 binding enrichment 0.7 or higher? HDRREYSRFEK [ITGB7_Y758_Y753H]
t

Test whether the sequence KFMVGYEMLAK [GALT_Y339_Q344K] records SH2 binding enrichment of 0.7 or higher.
t

Dear colleague, could you confirm whether CEHRGSLFLAI [TEK_Y897_Y897S_YF] has SH2 binding enrichment at or above 0.7?
f

Determine whether this sequence has SH2 binding enrichment no lower than 0.7: LEIETCRRLLD [KRT12_Y429_Y429C]
f

API: above_or_equal(metric=SH2 binding enrichment, cutoff=0.7) for item DIDKIYVRTGI [PIK3CA_Y355]
f

Is SH2 binding enrichment at least 0.7? Consider HFNLTYRILSF [MMP23B_Y95]
f

Could you please find out whether KDFETYQSFQN [CTNND2_Y1157_P1159S_YF] has SH2 binding enrichment that meets 0.7 or exceeds it?
f

Is SH2 binding enrichment for TVEDHYFEGGI [TKT_Y563_YF] at or above 0.7?
f

Please tell me: is the sequence IVKAYYVRARA [AIPL1_Y268] at or over 0.7 in terms of SH2 binding enrichment?
f

I'd appreciate it if you could say whether DKEKWYPLGTS [PIK3C2G_Y1438_N1442T] has SH2 binding enrichment at least equal to 0.7.
f

Decide: SH2 binding enrichment of ARLEFYENEKK [IRS1_Y47_YF] >= 0.7?
t

Hi team, for EEVPLYESATT [DCC_Y809_G805E] , is the recorded SH2 binding enrichment at or above 0.7?
f

Is the recorded value of SH2 binding enrichment equal to or greater than 0.7 for this sequence? IMNLLYHVVGW [GBA_Y412_T408M]
t

Quick check: does TDKLFYIFTSG [SLC27A4_Y243_YF] have SH2 binding enrichment greater than or equal to 0.7?
f

Does the sequence VAHAVYQAVLS [SMG1_Y549] have recorded SH2 binding enrichment that is 0.7 or more?
t

API: above_or_equal(metric=SH2 binding enrichment, cutoff=0.7) for item NPSFNYEIVNQ [DYNC1H1_Y3379_R3384Q_YF]
t

Does VNNTVYGIDAM [EIF3J_Y143_A141T] have a reported SH2 binding enrichment of at least 0.7?
f

Say whether MSRNLYSGDCF [DDR2_Y736_Y740C_YF] shows SH2 binding enrichment of 0.7 or more.
t

Kindly determine if SH2 binding enrichment recorded for SLRAHYDTPRS [DOK7_Y405] is above or exactly 0.7.
t

Determine whether this sequence has SH2 binding enrichment no lower than 0.7: GGRKGYGDFSR [RECQL5_Y478]
f

SH2 binding enrichment >= 0.7 for ETEMLYGSAPR [PRC1_Y464] ?
f

Is SH2 binding enrichment at least 0.7? Consider LYIDSYEKDVA [PGM1_Y521]
t
